All values here come from ChEMBL document CHEMBL4002604.

system: P19; experiment: Cytotoxicity against undifferentiated mouse P19 cells assessed as metabolic activity at 1 to 100 uM after 48 hrs by resazurin assay relative to control; format: functional
Each entry below lists one item and its recorded Activity value.
Report the value in % with no unit label.

# annotated cases, reported Activity shown
O=C(c1ccc2c(c1)C(=O)N(CCO)C2=O)c1ccc2c(c1)C(=O)N(CCO)C2=O	107.8
O=C(c1ccc2c(c1)C(=O)N(c1nc[nH]n1)C2=O)c1ccc2c(c1)C(=O)N(c1nc[nH]n1)C2=O	94
O=C(c1ccc2c(c1)C(=O)N(c1cccc(O)c1)C2=O)c1ccc2c(c1)C(=O)N(c1cccc(O)c1)C2=O	76.5

Now let's try a different one.
Hey, P19 data for O=C(c1ccc2c(c1)C(=O)N(CCCO)C2=O)c1ccc2c(c1)C(=O)N(CCCO)C2=O : Activity came out at 98.1
